Tested on: HOP-62 NSCLC
procedureText: NCI tumour cell line growth inhibition, 48 h
reportedMetric: TGI (µM)
# unit: µM | format: bare number

compound: CN1CCC[C@@H]1CCO[C@](C)(c1ccccc1)c1ccc(Cl)cc1
TGI [µM]: 23.1

Inquiry: Identify the measured TGI of O=CN1CCN(C(=O)c2cc(Cl)cc(Cl)c2)C1=S for HOP-62 NSCLC.
Reply text: 29.7

Inquiry: Identify the measured TGI of CC#CS(=O)(=O)c1ccccc1 for HOP-62 NSCLC.
Reply text: 47.2

* * *

Tested on: HS 578T breast
procedureText: NCI tumour cell line growth inhibition, 48 h
reportedMetric: TGI

compound: C=CC1ON(C)CCc2cc(OC)c(OC)cc21 (configuration not stated)
TGI: > 100 µM
//
compound: Cn1c(=O)[nH]c2[nH]c3ccccc3c2c1=O
TGI: > 100 µM
//
compound: COC(=O)[C@@H]1C[C@H]([Se]c2ccccc2)CN1S(=O)(=O)c1ccc(C)cc1
TGI: > 100 µM
//
compound: Oc1ccc(CNCc2ccccc2)c2cccnc12
TGI: > 100 µM
//
compound: CCOC(=O)C(Cc1c2ccccc2cc2ccccc12)(NC(C)=O)C(=O)OCC
TGI: > 100 µM

Kindly consider the entry below.
Inquiry: Request the reported TGI associated with O=C(CCN1CC2CCC(CC2)C1)c1cccs1
Reply text: 71.9 µM
